Tested target: Lysosomal acid glucosylceramidase (Homo sapiens) (UniProt P04062)
Sequence (P04062 whole entry, looked up): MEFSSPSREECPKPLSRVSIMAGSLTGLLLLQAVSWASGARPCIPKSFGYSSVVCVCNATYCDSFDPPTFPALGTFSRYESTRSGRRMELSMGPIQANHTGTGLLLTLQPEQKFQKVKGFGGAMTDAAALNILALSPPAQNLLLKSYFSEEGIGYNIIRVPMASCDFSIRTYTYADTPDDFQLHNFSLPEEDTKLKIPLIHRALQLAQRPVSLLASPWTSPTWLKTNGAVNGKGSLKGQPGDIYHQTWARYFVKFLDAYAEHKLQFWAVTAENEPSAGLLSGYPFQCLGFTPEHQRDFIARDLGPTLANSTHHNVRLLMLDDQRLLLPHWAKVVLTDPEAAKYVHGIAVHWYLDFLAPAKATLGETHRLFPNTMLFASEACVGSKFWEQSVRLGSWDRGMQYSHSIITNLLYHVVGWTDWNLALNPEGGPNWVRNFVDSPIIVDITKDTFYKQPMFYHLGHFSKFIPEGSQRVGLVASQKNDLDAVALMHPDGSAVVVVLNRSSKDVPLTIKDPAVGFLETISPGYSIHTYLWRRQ
Run description: Glucocerebrosidase-p2 (AID 348); also: potency is read from the fitted curve at half-maximal effect
Test parameters: purified GBA, blue fluorogenic substrate, 40 min
The source made the active and inactive calls. Rule as the data show it: active = potency below about 10 µM; inactive = the rest.
Your reply should match one of these outcome classes. TRUE for active, FALSE for inactive

The examples below pair each entry with its known result.
Lookup: So what was the verdict on Nc1nccc(Nc2ccc(S(N)(=O)=O)cc2)n1 in this test?
Found: FALSE

Lookup: So what was the verdict on O=C1c2ccccc2C(=O)c2c1ccc(C(=O)O)c2-c1ccc2ccccc2c1 in this test?
Found: FALSE

Lookup: So what was the verdict on CC(C)(C)c1ccc(O)c(CN(Cc2cc(C(C)(C)C)ccc2O)c2ccccc2)c1 in this test?
Found: FALSE

Lookup: So what was the verdict on O=C(O)c1nc(-c2ccccc2)[nH]c1C(=O)O in this test?
Found: FALSE

Lookup: So what was the verdict on CC1(C)[C@@H]2CC[C@]1(C)[C@@H](OC(=O)/C=C\c1ccccc1)C2 in this test?
Found: FALSE

Others:
Lookup: So what was the verdict on CC(=O)/C(=N\N=C(N)N)c1ccccc1 in this test?
Found: FALSE

Lookup: So what was the verdict on N#CC(CC(=O)O)=C(c1ccccc1)c1ccccc1 in this test?
Found: FALSE

Lookup: So what was the verdict on c1ccc2cc(NCNc3ccc4ccccc4c3)ccc2c1 in this test?
Found: FALSE

Lookup: So what was the verdict on CC[C@@]1([N+](=O)[O-])C[C@H]2C=C[C@@H]1C2 in this test?
Found: FALSE

Lookup: So what was the verdict on Cn1c(=O)c2c(nc(N/N=C\c3ccccc3C(=O)O)n2C)n(C)c1=O in this test?
Found: FALSE

----------
Run description: Cell Viability - SH-SY5Y (AID 544);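 also: cells exposed to compound for 40 hours; nearly all actives have a fitted effect of over 55% in size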
Test parameters: SH-SY5Y neuroblastoma cell viability
Records with an inconclusive call do not appear. Activity calls are given as the source filed them. Calls come from the whole dose curve; as a rule, active = well fitted cell-killing curve with a large enough effect; inconclusive = small, poorly fitted or top-dose-only effect; inactive = flat fitted curve, though single readings scatter.
Your reply should match one of these outcome classes. TRUE for active, FALSE for inactive

The examples below pair each entry with its known result.
Lookup: So what was the verdict on CCc1ccc(C(c2ccc(CC)cc2)C(Cl)Cl)cc1 in this test?
Found: FALSE

Lookup: So what was the verdict on CC(C)COC(=O)COc1cc(Cl)c(Cl)cc1Cl in this test?
Found: FALSE

Lookup: So what was the verdict on CC(C)OCC1CO1 (stereo not drawn) in this test?
Found: FALSE

Lookup: So what was the verdict on CC(=O)OC1CC(C)OC(C)O1 (stereo not drawn) in this test?
Found: FALSE

Lookup: So what was the verdict on CCOc1ccc2nc(N)sc2c1 in this test?
Found: FALSE

Others:
Lookup: So what was the verdict on c1ccc(CSCc2ccccc2)cc1 in this test?
Found: FALSE

Lookup: So what was the verdict on Cc1c2ccccc2c(C)c2c1ccc1ccccc12 in this test?
Found: TRUE

Lookup: So what was the verdict on c1ccc(COCc2ccccc2)cc1 in this test?
Found: FALSE

----------
Tested target: Guanine nucleotide-binding protein G(i) subunit alpha-1 (Homo sapiens) (UniProt P63096)
Sequence (P63096 whole entry, looked up): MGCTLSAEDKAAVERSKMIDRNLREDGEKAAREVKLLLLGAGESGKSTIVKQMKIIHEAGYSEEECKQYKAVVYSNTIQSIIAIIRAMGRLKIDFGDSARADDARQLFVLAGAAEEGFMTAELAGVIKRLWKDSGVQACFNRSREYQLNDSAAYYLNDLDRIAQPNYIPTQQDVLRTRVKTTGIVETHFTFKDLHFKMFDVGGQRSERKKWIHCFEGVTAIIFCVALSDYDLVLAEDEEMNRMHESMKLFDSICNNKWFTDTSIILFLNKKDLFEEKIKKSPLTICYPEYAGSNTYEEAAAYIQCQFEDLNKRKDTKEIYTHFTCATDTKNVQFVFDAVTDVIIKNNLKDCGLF
Run description: qHTS Assay for Inhibitors of RGS12 GoLoco Motif Activity (Green Fluorophore) (AID 879);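 also: 0% = labeled peptide with Gαi1 and full inhibition = labeled peptide alone without protein; negative values mean loss of peptide binding seen as reduced polarization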
Test parameters: Galphai1/FITC-RGS12 GoLoco peptide, fluorescence polarization; series mostly up to 57.1 µM
Text: Assay Overview: NIH Molecular Libraries Screening Centers Network [MLSCN] NIH Chemical Genomics Center [NCGC] MLSCN Grant: NS053754-01 Assay Provider: Siderovski, David P, University of North Carolina at Chapel Hill G-protein-coupled receptors (GPCRs) are major targets for drug discovery. […] Inhibitors of the binding are detected by a decrease in the fluorescence polarization (FP) of the fluorophore. […]
The source made the active and inactive calls. Calls follow the shape of the dose curve; as a rule, active = well fitted curve in the direction sought with a large enough effect; inconclusive = small, poorly fitted or top-dose-only effect, or another doubt; inactive = no such curve, though single readings can be large or run the other way.
Measure name: outcome

outcome value, target or system Guanine nucleotide-binding protein G(i) subunit alpha-1 (Homo sapiens) (UniProt P63096), for NC(=O)C1=CN([C@@H]2O[C@@H](COP(=O)(O)OP(=O)(O)OC[C@@H]3O[C@H](n4cnc5c(N)ncnc54)[C@@H](OP(=O)(O)O)[C@@H]3O)[C@H](O)[C@@H]2O)C=CC1 : inactive

outcome value, target or system Guanine nucleotide-binding protein G(i) subunit alpha-1 (Homo sapiens) (UniProt P63096), for C=C(C)[C@@H]1CC=C(C(=O)O)CC1 : inactive

outcome value, target or system Guanine nucleotide-binding protein G(i) subunit alpha-1 (Homo sapiens) (UniProt P63096), for Cc1ccccc1/C=C\C1=NCCN1 : inactive

----------
Tested target: Glucocorticoid receptor (Homo sapiens) (UniProt P04150)
Sequence (P04150 whole entry, looked up): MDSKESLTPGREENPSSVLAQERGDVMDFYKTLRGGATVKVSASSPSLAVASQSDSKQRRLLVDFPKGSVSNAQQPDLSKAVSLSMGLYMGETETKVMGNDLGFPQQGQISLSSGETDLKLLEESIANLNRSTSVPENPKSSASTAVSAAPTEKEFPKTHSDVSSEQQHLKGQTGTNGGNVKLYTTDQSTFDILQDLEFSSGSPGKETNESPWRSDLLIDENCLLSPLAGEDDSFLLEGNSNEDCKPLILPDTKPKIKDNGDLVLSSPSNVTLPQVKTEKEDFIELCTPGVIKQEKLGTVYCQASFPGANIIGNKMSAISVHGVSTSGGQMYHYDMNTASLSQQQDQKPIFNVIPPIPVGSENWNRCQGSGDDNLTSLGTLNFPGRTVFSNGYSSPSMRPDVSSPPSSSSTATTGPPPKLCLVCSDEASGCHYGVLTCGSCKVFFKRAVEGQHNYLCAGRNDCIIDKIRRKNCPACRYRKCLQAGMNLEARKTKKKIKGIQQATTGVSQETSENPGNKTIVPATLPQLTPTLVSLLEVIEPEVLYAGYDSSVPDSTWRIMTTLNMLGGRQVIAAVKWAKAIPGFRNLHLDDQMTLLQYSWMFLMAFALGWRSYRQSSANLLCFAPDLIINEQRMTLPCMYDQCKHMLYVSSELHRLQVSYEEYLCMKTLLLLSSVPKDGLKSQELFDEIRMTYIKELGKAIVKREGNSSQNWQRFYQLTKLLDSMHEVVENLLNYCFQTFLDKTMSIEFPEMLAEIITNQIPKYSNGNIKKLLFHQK
Run description: GR-EFC Redistribution (AID 451); also: potency is read from the fitted curve at half-maximal effect
Test parameters: CHO-K1 GR-EFC translocation, beta-gal luminescence, 2 h
Calls of active or inactive are those of the source. Calls follow the shape of the full dose curve.
Reported values of Potency for individual entries

Below, 2 compounds whose answers are already recorded.
For reference, reported Potency for COc1ccc(-c2nc3cnc(N4CCNCC4)nc3n(Cc3cccc(OC)c3)c2=O)cc1 stands at > 46 µM (inactive)

For reference, reported Potency for Cc1ccc(C)c(/C(=N\N=C(N)N)C2CC2)c1 stands at > 9.22 µM (inactive)

# evaluate next
For reference, reported Potency for N[C@@H](CSC(=O)c1ccccc1)C(=O)O stands at > 9.22 µM (inactive)

----------
Run description: NFAT Signaling Pathway (AID 444);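 also: carbachol stimulus at about its EC50 of 1 µM final; % is scaled to controls: 0 for no effect and ±100 for the full control effect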
Test parameters: Jurkat NFAT-bla M1, carbachol, beta-lactamase ratio, 5 h; at 7.69 µM (top of the series) unless noted
Results filed as inconclusive are left out. The source made the active and inactive calls. Calls follow the shape of the dose curve; as a rule, active = well fitted curve in either direction with a large enough effect (not every such curve was filed as active); inconclusive = small, poorly fitted or top-dose-only effect, or another doubt; inactive = flat fitted curve, though single readings scatter.
Measure name: activity change, negative = inhibition

Below, 5 compounds whose answers are already recorded.
For reference, reported activity change, negative = inhibition for Nc1nc(-c2cc(-c3cccc4ccccc34)nc(N)n2)cc(-c2cccc3ccccc23)n1 stands at 3.93% (inactive)

For reference, reported activity change, negative = inhibition for O=C1C2=C(Nc3cc([N+](=O)[O-])ccc3N2)O[C@@H]1c1c[nH]c2ccc(COc3ccccc3)cc12 stands at 6.34% (inactive)

For reference, reported activity change, negative = inhibition for CC[C@H](C)[C@@H]1O[C@]2(CC[C@@H]1C)C[C@H]1C[C@H](CC=C(C)[C@@H](O[C@H]3C[C@H](OC)[C@H](O[C@H]4C[C@H](OC)[C@H](O)[C@H](C)O4)[C@H](C)O3)[C@@H](C)C=CC=C3CO[C@@H]4[C@@H](O)C(C)=C[C@H](C(=O)O1)[C@@]34O)O2 stands at -10.6% [at 38 µM] (inactive)

For reference, reported activity change, negative = inhibition for O=C(O)C1(C(=O)O)CCN(S(=O)(=O)c2ccccc2)CC1 stands at 5.93% (inactive)

For reference, reported activity change, negative = inhibition for NC(N)=Nc1nc2ccc([N+](=O)[O-])cc2[nH]1 stands at 0.0962% (inactive)

# evaluate next
For reference, reported activity change, negative = inhibition for Cn1c(C[C@@H](O)c2nc3ccccc3n2C)nc2ccccc21 stands at 13.3% (inactive)

----------
Run description: Cellular Toxicity (caspase-3) Jurkat (AID 655);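 also: cells exposed to compound for 16 h at 37 °C before reading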
Test parameters: Jurkat caspase-3 activation, luminescence
Inconclusive results are not listed. The source made the active and inactive calls. Calls follow the shape of the dose curve; as a rule, active = well fitted activation curve with a large enough effect; inconclusive = small, poorly fitted or top-dose-only effect; inactive = flat fitted curve, though single readings scatter.
Measure name: outcome

For reference, reported outcome for Cc1ccc(S(N)(=O)=O)cc1 stands at inactive

For reference, reported outcome for C/C=C/C=C/C=O stands at inactive

For reference, reported outcome for Clc1nc2ccccc2nc1Cl stands at inactive

For reference, reported outcome for CCN(CC)c1ccc2c(C)cc(=O)oc2c1 stands at inactive

For reference, reported outcome for C=CC(C)(O)CCCC(C)CCCC(C)CCCC(C)C (stereo not given) stands at inactive

Others:
For reference, reported outcome for Brc1ccc(-c2ccccc2)cc1 stands at inactive

----------
Run description: qHTS assay for small molecule activators of the nuclear factor-kappa B (NF-kB) signaling pathway (AID 651749); also: % of control where 0% means no effect
Test parameters: NF-kB-bla ME-180 cells, beta-lactamase FRET ratio, 16 h; hits give high values
Results filed as inconclusive are left out.
Measure name: activation (%)
Lab book: enter the figure in %, no units written.

Below, 5 molecules whose answers are already recorded.
For reference, reported activation for CN(C)c1ccc(C(=N)c2ccc(N(C)C)cc2)cc1 stands at 3.33

For reference, reported activation for C=CC1CO1 (stereo not given) stands at 0.488

For reference, reported activation for CCC(Cl)CC(Cl)C(Cl)C(Cl)C(Cl)C(C)Cl (stereo not given) stands at 0.226

For reference, reported activation for O=CC(=O)c1ccccc1 stands at -1.11

For reference, reported activation for C[Si](C)(C)Cl stands at 1.18

Others:
For reference, reported activation for O=C1OC(=O)c2ccccc21 stands at 0.114

For reference, reported activation for Brc1cc(Br)c(Oc2cc(Br)c(Br)cc2Br)cc1Br stands at 3.12

For reference, reported activation for CC(C)OCC1CO1 (stereo not given) stands at 0.599
